Where do these numbers come from? They come from the supplement of paper PMC10702517.

- PROTOCOL DESCRIPTION: chemical recovery by SPE of plasma after PDMS sampling; higher = better extraction
- COND: pooled human plasma; extraction method: HLB SPE of plasma after PES; equilibration time (d): 1
MEASURED ATTRIBUTE: chemical recovery by SPE of plasma

Would you please look over these solved cases?
{"columns": ["MOLECULE", "chemical recovery by SPE of plasma"],
 "data": [
  ["CC(C)N1C(=O)c2ccccc2NS1(=O)=O", "54.8%"],
  ["Cc1cc(C2CCCCC2)n(O)c(=O)c1", "2.83%"],
  ["Oc1ccccc1-c1ccccc1", "4.5%"],
  ["CN(C)CCOC(c1ccccc1)c1ccccc1 [Diphenhydramine]", "0.353%"]
]}

Inquiry: // lookup chemical recovery by SPE of plasma for Nc1ccc(-c2ccc(N)cc2)cc1
Reply text: 6.25%

Inquiry: Look at this molecule and give its reported chemical recovery by SPE of plasma. Clc1cc(Cl)c(-c2cc(Cl)c(Cl)cc2Cl)cc1Cl
Reply text: 4.72%

Inquiry: Item CC1(C)O[C@@H]2C[C@H]3[C@@H]4C[C@H](F)C5=CC(=O)C=C[C@]5(C)[C@H]4[C@@H](O)C[C@]3(C)[C@]2(C(=O)CO)O1 [Flunisolide] has what recorded chemical recovery by SPE of plasma?
Reply text: 39.7%

Inquiry: Name the reported chemical recovery by SPE of plasma value associated with the molecule COP(=O)(OC)C(O)C(Cl)(Cl)Cl (stereo not given)
Reply text: 30.8%

Inquiry: Request the reported chemical recovery by SPE of plasma associated with Cc1nc2ccccc2s1
Reply text: 0.0827%

Inquiry: Recorded chemical recovery by SPE of plasma for ClC=C(c1ccc(Cl)cc1)c1ccc(Cl)cc1 , please?
Reply text: 11.4%

====

- PROTOCOL DESCRIPTION: chemical recovery into PDMS from spiked human plasma; higher = better extraction
- COND: pooled human plasma; extraction method: PES with PDMS; equilibration time (d): 3
Is chemical recovery into PDMS at least 10%? Then 1. If not, 0.

A selection of reference data follows.
{"columns": ["COMPOUND", "GROUP LABEL"],
 "data": [
  ["O=c1[nH]cc(F)c(=O)[nH]1", 0],
  ["CCC(C)OC(=O)N1CCCCC1CCO (stereo unspecified)", 1]
]}

Inquiry: Determine whether measured chemical recovery into PDMS meets or exceeds 10% for N#CSCSc1nc2ccccc2s1 [(Benzothiazol-2-ylthio)methyl thiocyanate]
Reply text: 1

Inquiry: Exam item: decide whether the reported chemical recovery into PDMS for CC(C)(C#N)c1cc(Cn2cncn2)cc(C(C)(C)C#N)c1 is at least 10%.
Reply text: 1

Inquiry: Tell me whether chemical recovery into PDMS is at least 10% here: C=CC[C@@H]1/C=C(\C)C[C@H](C)C[C@H](OC)[C@H]2O[C@@](O)(C(=O)C(=O)N3CCCC[C@H]3C(=O)O[C@H](/C(C)=C/[C@@H]3CC[C@@H](O)[C@H](OC)C3)[C@H](C)[C@@H](O)CC1=O)[C@H](C)C[C@@H]2OC
Reply text: 1

====

- PROTOCOL DESCRIPTION: chemical recovery from spiked human plasma; higher = better extraction
- COND: pooled human plasma; extraction method: SPE only (HLB 96-well), PES comparison experiment
Would you mind classing the entries by chemical recovery? Ranges: bottom end: < 40%; midrange: ≥ 40% and < 50%; top end: ≥ 50%

{"columns": ["COMPOUND", "GROUP LABEL"],
 "data": [
  ["CC(=O)CCCCn1c(=O)c2c(ncn2C)n(C)c1=O [Pentoxifylline]", "top end"]
]}

Inquiry: Which class holds CN1CCN(C2=Nc3cc(Cl)ccc3Nc3ccccc32)CC1 [Clozapine] ?
Reply text: bottom end

Inquiry: Hey, which category is Clc1cc(Cl)c(-c2ccc(Cl)c(Cl)c2Cl)cc1Cl [PCB138] in, do you know?
Reply text: bottom end

Inquiry: Note: place this compound into its band. Item: Cc1nc(N(C)C)nc(OC(=O)N(C)C)c1C [Pirimicarb]
Reply text: midrange

Inquiry: // bin(item) where item = CC(=O)[C@H]1CC[C@H]2[C@@H]3CCC4=CC(=O)CC[C@]4(C)[C@H]3CC[C@]12C [Progesterone]
Reply text: midrange

Inquiry: Class for CCCC[N+]1(C)[C@H]2CC(OC(=O)C(CO)c3ccccc3)C[C@H]1[C@H]1O[C@H]12 (some centres undefined) [Scopolamine-N-butyl] ?
Reply text: midrange
